- target.desc: UniProtKB P11474
- Sequence (P11474 193-421 limits assumed, species assumed): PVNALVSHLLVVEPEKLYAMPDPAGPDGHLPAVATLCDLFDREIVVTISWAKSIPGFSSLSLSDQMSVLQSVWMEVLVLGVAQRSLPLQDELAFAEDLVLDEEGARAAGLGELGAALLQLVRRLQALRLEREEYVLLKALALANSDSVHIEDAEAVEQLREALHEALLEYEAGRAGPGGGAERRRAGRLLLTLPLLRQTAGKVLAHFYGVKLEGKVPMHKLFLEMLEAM
- experiment.notes: TR-FRET assay (disruption of co-activator peptide binding to ERR1 LBD)
- Assay type: biochemical
- condition.notes: average of 3 independent experiments; read-out: TR-FRET EC50
Lab note - cut at 500 nM for EC50: rule met if strictly below, rule not met if not.

Criterion: EC50 strictly below 500 nM. Is it met by "COc1cc(/C=C2\OC(=O)NC2=O)ccc1Oc1ccc(C#N)c2ccccc12" ?
rule met

Say whether its EC50 is strictly beneath 500 nM. Entry: "N#Cc1ccc(Oc2ccc(/C=C3\SC(=O)NC3=O)cc2Cl)c(C(F)(F)F)c1"
rule not met

is_below(EC50, 500 nM) for "CCOc1cc(/C=C2\SC(=O)NC2=O)ccc1Oc1ccc(C(N)=O)cc1C(F)(F)F" ?
rule met

Does "Cc1cc(/C=C2\SC(=O)NC2=O)ccc1Oc1ccc(C#N)c2ccccc12" have EC50 strictly under 500 nM?
rule met

Just wondering, is EC50 of "COc1cc(/C=C2\SC(=O)NC2=O)ccc1Oc1ccc(S(C)(=O)=O)cc1Cl" below 500 nM?
rule not met

Dear reviewer, please state whether "N#Cc1ccc(Oc2ccc(/C=C3\SC(=O)NC3=O)cc2Br)c(C(F)(F)F)c1" has EC50 strictly beneath 500 nM.
rule not met

Is EC50 of "O=C1NC(=O)/C(=C/c2ccc(Oc3ccc(Cl)cc3C(F)(F)F)c(F)c2)S1" strictly below 500 nM?
rule met

====

// values below are reported EC50
- target.desc: UniProt P11474
- experiment.notes: TR-FRET assay (disruption of co-activator peptide binding to ERR1 LBD)
- Assay type: biochemical
Hey, just the number and the unit after it is fine.

Known results for molecules:
COc1cc(/C=C2\SC(=O)NC2=O)ccc1Oc1ccc(C#N)cc1Cl: 430 nM
COc1cc(/C=C2\SC(=O)NC2=O)ccc1Oc1ccc(C#N)cc1C(F)(F)F: 54 nM
COc1cc(/C=C2\SC(=O)NC2=O)ccc1Oc1ccc(C(F)(F)F)cc1Br: 380 nM

Looking up "COC(=O)c1ccc(Oc2ccc(/C=C3\SC(=O)NC3=O)cc2OC)c(C(F)(F)F)c1" , I found its EC50 recorded as 12 nM
